Data origin: patent US10799456B2

// reported concentration at 24 h per item
assay: in vivo; details: male, Macaca nemestrina, in vivo, sc, Mean drug concentration, Plasma, Anti-HIV LNP treatment
The answer is to be given in ng/mL; state only the numeric part.

Illustrative cases are given below, each with its answer.
Cc1cccc(C)c1OCC(=O)N[C@@H](Cc1ccccc1)[C@@H](O)C[C@H](Cc1ccccc1)NC(=O)[C@H](C(C)C)N1CCCNC1=O : 596
CC(C)c1nc(CN(C)C(=O)N[C@H](C(=O)N[C@@H](Cc2ccccc2)C[C@H](O)[C@H](Cc2ccccc2)NC(=O)OCc2cncs2)C(C)C)cs1 [Ritonavir (RTV), Ritonavir] : 164

Item C[C@H](Cn1cnc2c(N)ncnc21)OCP(=O)(O)O has what recorded concentration at 24 h?
3600

* * *

% Drug Association to Particles, LNPs from mixture of dual solvent method overview
assay: % Drug association to particles by assembly method; assay type: physicochemical

// solved cases for % Drug Association to Particles, LNPs from mixture of dual solvent method follow
Cc1cc(/C=C/C#N)cc(C)c1Nc1ccnc(Nc2ccc(C#N)cc2)n1 [Rilpivirine] : 75-76%
O=C1Nc2ccc(Cl)cc2[C@@](C#CC2CC2)(C(F)(F)F)O1 [Efavirenz] : 76%

Now for another entry.
Param item = Cc1nnc(C(=O)NC(C)(C)c2nc(C(=O)NCc3ccc(F)cc3)c(O)c(=O)n2C)o1 [Raltegravir] ; retrieve measured % Drug Association to Particles, LNPs from mixture of dual solvent method.
9-25%

* * *

assay: Intracellular drug concentration in inguinal lymph node mononuclear cells (LNMCs); settings: male, Macaca nemestrina, in vivo, LN/plasma ratio, Free drug treatment, 24 h
measurementType: Kp at 24 h
Just the number, please.

CC(C)c1nc(CN(C)C(=O)N[C@H](C(=O)N[C@@H](Cc2ccccc2)C[C@H](O)[C@H](Cc2ccccc2)NC(=O)OCc2cncs2)C(C)C)cs1 [Ritonavir (RTV), Ritonavir] : 5.5

Now look at this one.
Request the reported Kp at 24 h associated with C[C@H](Cn1cnc2c(N)ncnc21)OCP(=O)(O)O
284

* * *

Attribute: concentration at 24 h
Experiment: in vivo
Conditions: male, Macaca nemestrina, in vivo, sc, Mean drug concentration, Plasma, Free drug treatment
Procedure: Four young adult male macaques (Macaca nemestrina, 2.9-4.0 kg) were housed and cared for by the Washington National Primate Research Center (WaNPRC) under an approved Institutional Animal Care and Use Committee protocol. […] Plasma concentrations of all three drugs were analyzed simultaneously by liquid chromatography-tandem mass spectrometry using a recently published method. […] Data were analyzed by paired two-tailed Student's t-test with p<0.05 considered statistically significant.
Number in ng/mL, nothing else.

CC(C)c1nc(CN(C)C(=O)N[C@H](C(=O)N[C@@H](Cc2ccccc2)C[C@H](O)[C@H](Cc2ccccc2)NC(=O)OCc2cncs2)C(C)C)cs1 [Ritonavir (RTV), Ritonavir] : 5.9
C[C@H](Cn1cnc2c(N)ncnc21)OCP(=O)(O)O : 0.9

// below: concentration at 24 h requested for another molecule
Which concentration at 24 h reading was recorded for the molecule Cc1cccc(C)c1OCC(=O)N[C@@H](Cc1ccccc1)[C@@H](O)C[C@H](Cc1ccccc1)NC(=O)[C@H](C(C)C)N1CCCNC1=O ?
24.5

* * *

test system: HIV-2(287) replication; experiment: Antiviral activity in HIV-infected CEM-174 cells; type: cell-based; conditions: read-out: EC50 (nM), Single agent controls; single agent; listed as PMPA
measurementType: EC50 (nM)
I only need the number, in nM, no unit after it.

Value lookup for EC50; key = C[C@H](Cn1cnc2c(N)ncnc21)OCP(=O)(O)O [Tenofovir (TFV)]
1150
